// values below are reported apparent Kd
System: MS2 coat protein
Test: apparent Kd, MS2 coat protein; higher = weaker binding; RNA-MaP array; FMN 200 µM where present
Settings: ligand present: flavin mononucleotide; designed as: OFF switch for flavin mononucleotide
Reply numerically in nM, unit not repeated.

Some solved entries appear below for comparison.
[
  {
    "sequenceInput": "CUCGUGUCAGGAUAUGGAAGGCCGUUUGAUUAACGAGGGUACUAGAAGGGACAUGAGGAUCACCCAUGUAAAAA",
    "apparent Kd (nM)": 57.6
  },
  {
    "sequenceInput": "UUAUUUUGUCAAGGAUAUGUAGUAUUGAUUUGAAAACAUGAGGAUCACCCAUGUAUAUGGUGGGAACAGAAGGUGAAUGUUGAA",
    "apparent Kd (nM)": 290
  },
  {
    "sequenceInput": "UUCGUGCAGCUUUGCUGUACGCGUACAUGAGGAUCACCCAUGUAGGAUAUGGUAGGCAUUGCUUACUAGAAGGAUAGUGUGAUC",
    "apparent Kd (nM)": 32.2
  },
  {
    "sequenceInput": "UAGAGUCUUGAGGAUAUUGGUACGUACCGGUCCCAAGAAGGCGAGACAUGAGGAUCACCCAUGUGACCGUGAGC",
    "apparent Kd (nM)": 47.8
  },
  {
    "sequenceInput": "UUACUAUUACAGAAGGUUAAAUAAUAUAUAAAUGAAGGAUAUGUAACAUGAGGAUCACCCAUGUUUCACCCACAUGAGGAUCAC",
    "apparent Kd (nM)": 12
  }
]

// next entry
Can you share its apparent Kd? I mean this sequence: AAUAGGCGAGGAUAUACAUGAGGAUCACCCAUGUAAGUAAGCCUGGCUGAAACUGAAUGUAGAAGGCGCAAUAA
58.5

---

System: MS2 coat protein
Assay: apparent Kd, MS2 coat protein; higher = weaker binding; RNA-MaP array
Conditions: ligand present: theophylline; designed as: ON switch for theophylline
readout: apparent Kd (nM)
Reply numerically in nM, unit not repeated.

Some solved entries appear below for comparison.
[
  {
    "sequenceInput": "GCUUCACAUGAGGAUCACCCAUGUCCGGAUACCAGCUCUCCAGACAGCCCUUGGCAGCCGAGCGCCCGAUUAUAUACCCUAGGAG",
    "studyTarget": "MS2 coat protein",
    "apparent Kd (nM)": 29.9
  },
  {
    "sequenceInput": "CAUUGAGCAGCUGAUACCAGUGCCUGAACUUACAUGAGGAUCACCCAUGUAUGCCCAAAACACCCUUGGCAGCAGAGGAAGAUCG",
    "studyTarget": "MS2 coat protein",
    "apparent Kd (nM)": 13.9
  },
  {
    "sequenceInput": "CAGCCACAUGAGGAUCACCCAUGUGAUGAUACCAGCUUCGUCUUAAGCCCUUGGCAGCAUAUCUCUUUGUUCUCAUACAUAGCAU",
    "studyTarget": "MS2 coat protein",
    "apparent Kd (nM)": 12.3
  },
  {
    "sequenceInput": "CGUCAACAUGAGGAUCACCCAUGUUUCGAUACCAGUGACCCUCUCCACCCUUGGCAGCGAGCGCCCGCGCCUGAUAAAUCUUCUA",
    "studyTarget": "MS2 coat protein",
    "apparent Kd (nM)": 14.2
  }
]

// next entry
Can you share its apparent Kd? I mean this sequence: UGCGGACAUGAGGAUCACCCAUGUGCGGAUACCAGCAGCCGGCUCUGCCCUUGGCAGCCGCUACCCUUGCACGUUUAACGAUCCA
36.7

---

// values below are reported apparent Kd
Test system: MS2 coat protein
Test: apparent Kd, MS2 coat protein; higher = weaker binding; RNA-MaP array; FMN 200 µM where present
Conditions: designed as: OFF switch for flavin mononucleotide; no ligand
Reply numerically in nM, unit not repeated.

Some solved entries appear below for comparison.
[
  {
    "sequenceInput": "UGUAAUGCUAUUGCAGAGGUUUAGAAGGAUAUACAUCGACAUGACCGUACAUGAGGAUCACCCAUGUAGAAGGUCUAACUUCUU",
    "studyTarget": "MS2 coat protein",
    "apparent Kd (nM)": 4.95
  },
  {
    "sequenceInput": "GUUUCACAUGAGGAUCACCCAUGUGAGGAUAUCUAUUUGUUAACCGUAGUUAAUAGAUAGAGAAGGCGCGUGAU",
    "studyTarget": "MS2 coat protein",
    "apparent Kd (nM)": 69
  },
  {
    "sequenceInput": "UGUCGGAGCAGAGGAUAUUACAUGAGGAUCACCCAUGUAUGAACCAAUAGCUGGAAACAGCAAUGUAAGAAGGCUGCUCCGAUA",
    "studyTarget": "MS2 coat protein",
    "apparent Kd (nM)": 11.8
  },
  {
    "sequenceInput": "GCCAAUACCGAGGAUAUCCUGAAGCACAUAUCUGGAGAAGGCGGUACAUGAGGAUCACCCAUGUGCUCGUGAGA",
    "studyTarget": "MS2 coat protein",
    "apparent Kd (nM)": 21.6
  }
]

Can you share its apparent Kd? I mean this sequence: GUGUAGAUAGGAUAUGCAUGAGUCUAGCGAAGCUAGGCUCUACAUGAGGAUCACCCAUGUAGAAGGGUCUACAC
20.6

Can you share its apparent Kd? I mean this sequence: CAGUACUGAGGAUAUACAUGAGGAUCACCCAUGUGUUCCAGCUAGGAAACUAGCAGAAGUAGAAGGCAGUACUG
24.6

---

Tested on: MS2 coat protein
Assay: apparent Kd, MS2 coat protein; higher = weaker binding; RNA-MaP array; theophylline 2 mM where present
Details: designed as: ON switch for theophylline; no ligand
Mark MET for reported apparent Kd of 80 nM or greater; mark NOT MET for anything smaller.

Some entries whose results are on file:
[
  {
    "sequenceInput": "UUAAGAGGCUAUCCACUUUGAUUUUGUGAUACCAGAAUAAUUUUAUUCCCUUGGCAGCAUGACAUGAGGAUCACCCAUGUGUCUU",
    "labelClass": "NOT MET"
  },
  {
    "sequenceInput": "AUUAAUAGUUGUGAUACCAGACUUACAUGAGGAUCACCCAUGUUACUUAAGUGUUUUGAUGUCCCUUGGCAGCACUGUUUAGUUA",
    "labelClass": "NOT MET"
  },
  {
    "sequenceInput": "CUCUGAGUCCGCAAGGACUCAGAGGCGGAUACCAGCGAGGUCCAUCGCCCUUGGCAGCCGAACAUGAGGAUCACCCAUGUCGGUA",
    "labelClass": "NOT MET"
  },
  {
    "sequenceInput": "AACAUGAGGAUCACCCAUGUAAAAUGGGAUACCAGAGACGAAAGUCUCCCUUGGCAGCCCACUGCCUCCUUUACGAAAGUAGAGG",
    "labelClass": "NOT MET"
  }
]

Quick check, apparent Kd >= 80 nM? AGCAUGUUAUCAGAUACCAGACAUCUUUUUUUACGUAUUACAUGAGGAUCACCCAUGUUGGUCCCUUGGCAGCUGAAAUAUUUCA
MET

Quick check, apparent Kd >= 80 nM? AUCGCACCUGGUGAUACCAGCGUUUGCUCGCGACAUGAGGAUCACCCAUGUGGCCAGUGAUGCCCUUGGCAGCAUGGGCGGUGCA
MET

Quick check, apparent Kd >= 80 nM? GGCACUCUGUAAGAUACCAGACGUCGGUGCUUACAUGAGGAUCACCCAUGUUGCUUUUUAGUCCCUUGGCAGCUUCGGAUAACCA
MET

Quick check, apparent Kd >= 80 nM? AUCGUACCUGAUGAUACCAGCAUGUGAUCAUAACAUGAGGAUCACCCAUGUAAUCAGUGAUGCCCUUGGCAGCAUGAUCGGUACA
NOT MET

Quick check, apparent Kd >= 80 nM? GUCAGUUCUCAUGAUACCAGACCUGCCUCGGACAUGAGGAUCACCCAUGUACCCAAGCGAGUCCCUUGGCAGCAUGUGGCUUAAA
NOT MET

---

Test system: MS2 coat protein
Experiment: apparent Kd, MS2 coat protein; higher = weaker binding; RNA-MaP array; tryptophan 2.4 mM where present
Conditions: ligand present: tryptophan; designed as: OFF switch for tryptophan
readout: apparent Kd (nM)
Reply numerically in nM, unit not repeated.

Some solved entries appear below for comparison.
[
  {
    "sequenceInput": "CCUAUGCAGUCGGCCGCCACUGAGUCCUCAAUAAUAAAUUAAUAUACAUGAGGAUCACCCAUGUACAGGACCGGGACUGUAUAGG",
    "readout": "apparent Kd",
    "testResult": 167
  },
  {
    "sequenceInput": "UUAUAAGUACCGGUCCUCAGAUCCUCAUGACGAGGACCGGUACGGCCGCCACUCGAAACAUGAGGAUCACCCAUGUAAUAACAUC",
    "readout": "apparent Kd",
    "testResult": 20.7
  },
  {
    "sequenceInput": "UAUAUAUACUCGGCCGCCACUGAGAGAGUCAUGUAAACAUGAGGAUCACCCAUGUAAUAUAUAUACAGGACCGGGAGUAUAUUAA",
    "readout": "apparent Kd",
    "testResult": 13.8
  }
]

// next entry
Record lookup: for MS2 coat protein, what apparent Kd belongs to UAACAUGAGGAUCACCCAUGUAAACUAAGUCGAGGACCGGUACGGCCGCCACUCGAAAUUGAAGAAUUGGCGGAAAAUGUAUGUU ?
18.9
